Recorded normalized growth, one value per entry.
test: chemical genetic growth profiling, strain panel (AID 1159580);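 note: tested at 20 µM; growth read once vehicle control cultures reached saturation at 30 °C; 1 = growth at the plate median or of vehicle wells; lower values mean less growth of the strain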; conditions: S. cerevisiae deletion strains, growth OD, locus YOR184W, strain ser1, active compounds read low
About 2,000 (36%) of roughly 5,500 compounds were called active. Roughly 18% stayed inconclusive and do not appear here. The list shows a part of the results.

Consider the reported normalized growth for these molecules:
> print(dat)
                                   molecule          measured
1  O=C1O[C@@H](CO)[C@H](O)[C@@H](O)[C@@H]1O      1 (inactive)
2                       CCOP(=S)(OCC)SCCSCC  0.956 (inactive)

q: Bench note: what normalized growth did `O=C(O)P(=O)(O)O` show?
a: 0.941 (inactive)

q: Same lookup for CC1=CC(=O)CC(C)(C)C1(O)/C=C/C(C)=C\C(=O)O (configuration not stated) , please.
a: 0.98 (inactive)

q: Same lookup for COc1ccc(C[C@H](N)C(=O)N[C@@H]2[C@@H](CO)OC(n3cnc4c(N(C)C)ncnc43)[C@@H]2O)cc1 (some centres not stated) , please.
a: 1.04 (inactive)

q: Same lookup for `CCOP(=S)(OCC)SCSP(=S)(OCC)OCC` , please.
a: 0.968 (inactive)

q: Same lookup for Cc1cccc(CN2CCN(C(c3ccccc3)c3ccc(Cl)cc3)CC2)c1 (configuration not stated) , please.
a: 0.833 (active)

q: Same lookup for NC(=O)c1cc[n+](CC2=C(C(=O)O)N3C(=O)C(NC(=O)C(c4ccccc4)S(=O)(=O)[O-])C3SC2)cc1 (configuration not stated) , please.
a: 0.98 (inactive)

q: Same lookup for CCN(CC)CCOC(=O)C(Cc1cccc2ccccc12)CC1CCCO1 (configuration not stated) , please.
a: 1.01 (inactive)

q: Same lookup for `c1cc2c(cc1[C@H]1OC[C@H]3[C@@H]1CO[C@H]3c1ccc3c(c1)OCO3)OCO2` , please.
a: 0.624 (active)

q: Same lookup for `O=C(O)CNCP(=O)(O)O` , please.
a: 1.02 (inactive)

q: Same lookup for `CCOP(=S)(OCC)SCSCC` , please.
a: 1.01 (inactive)

###

assay: chemical genetic growth profiling, strain panel (AID 1159580);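 note: tested at 20 µM; growth read once vehicle control cultures reached saturation at 30 °C; 1 = growth at the plate median or of vehicle wells; lower values mean less growth of the strain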; conditions: S. cerevisiae deletion strains, growth OD, locus YCL011C, strain gbp2, active compounds read low
Hit rate of the full screen: of about 5,500 compounds, about 2,000 (36%) were called active. Not shown: some 18% with an inconclusive outcome. This is one part of the list.
PROPERTY LABEL: normalized growth
Number, no unit, nothing else.

Consider the reported normalized growth for these compounds:
COMPOUND	normalized growth
OC1CCCCC1N1CCC(c2ccccc2)CC1 (stereo unspecified)	0.996
CC[C@]12CCCN3CCc4c(n(c5ccccc45)C(=O)C1)[C@@H]32	1.01
CCOC(=O)c1ccc(N)cc1	0.987

q: Bench note: what normalized growth did `OC/C=C/c1ccc(O)c(O)c1` show?
a: 0.994

###

assay: chemical genetic growth profiling, strain panel (AID 1159580);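 note: tested at 20 µM; growth read once vehicle control cultures reached saturation at 30 °C; 1 = growth at the plate median or of vehicle wells; lower values mean less growth of the strain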; conditions: S. cerevisiae deletion strains, growth OD, locus YPR141C, strain kar3, active compounds read low
Hit rate of the full screen: of about 5,500 compounds, about 2,000 (36%) were called active. Another 18% or so got no clear call; they are omitted. The list shows a part of the results.
Recorded normalized growth, one value per entry.

Consider the reported normalized growth for these compounds:
> print(dat)
                                   compound          measured
1     CN=C1CN(O)C(c2ccccc2)=c2cc(Cl)ccc2=N1  0.962 (inactive)
2  CC1=C(/C=C/C(C)=C/C=C/C(C)=C\C(=O)O)C(C)(C)CCC1  0.989 (inactive)
3  CC[C@]12CCCN3CCc4c(n(c5ccccc45)C(=O)C1)[C@@H]32  0.977 (inactive)

q: Bench note: what normalized growth did `COC(=O)[C@H]1[C@H]2C[C@@H]3c4[nH]c5cc(OC)ccc5c4CCN3C[C@H]2C[C@@H](OC(=O)c2cc(OC)c(OC)c(OC)c2)[C@@H]1OC` show?
a: 1.02 (inactive)

q: Same lookup for Nc1c(Br)cc(Br)cc1CNC1CCC(O)CC1 (stereo unspecified) , please.
a: 0.99 (inactive)

q: Same lookup for `CC1=C(/C=C/C(C)=C/C=C/C(C)=C/CO)C(C)(C)CCC1` , please.
a: 0.997 (inactive)

Numbers sourced from PubChem BioAssay AID1159580.
